# Tested on: U251 CNS
# ASSAY PROCEDURE: NCI-60 one-dose screen, 48 h
# CONDITION CONTEXT: 10 µM unless noted
About 83,000 compounds went through this panel and 20% of them were active in at least one assay; those are over-represented in the sample as a whole. Calls of active or inactive are those of the source. The calls were made as follows: active = growth percent below 10; inactive = the rest.
Form entry, call: pick from active, inactive

Please indicate how the test categorized CC1=C2[C@@H](CC1)[C@]1(C)O[C@@](C3CCNCC3)(C[C@H]1OC(=O)CO)[C@H]2OC(=O)/C=C/c1ccccc1 .
inactive

Please indicate how the test categorized C=CN(C(=O)N1CCN(c2cc3c(cc2F)c(=O)c(C(=O)O)cn3C2CC2)CC1)c1nc(-c2ccccc2)cs1 .
inactive

Please indicate how the test categorized Cc1nn(-c2ccc([N+](=O)[O-])cc2)c2ncnc(N/N=C/c3ccccc3O)c12 .
inactive

Please indicate how the test categorized O=[N+]([O-])c1c(O)c(Cl)cc(Cl)c1Cl .
inactive

Please indicate how the test categorized CC(C)=CC(=O)N[C@H]1CC[C@]2(C)C3CC[C@]4(C)C(C(C)N(C)C)=CCC4C3CCC2[C@H]1O (stereo not given in full) .
inactive

Please indicate how the test categorized COc1nc(/C=C\Nc2ccc3c(c2)OCCOCCOCCOCCO3)nc(OC)n1 .
inactive

Please indicate how the test categorized COc1ccc(C2[C@@H](c3ccccc3)C(=O)N2c2cc(OC)c(OC)c(OC)c2)cc1F (stereo not given in full) .
active

Please indicate how the test categorized C=CCn1cc(-c2nc3ccccc3s2)c2cc(-c3ccc4c5c(cccc35)C(=O)N(CCO)C4=O)ccc21 .
inactive

###

# Tested on: OVCAR-4 ovarian
# ASSAY PROCEDURE: NCI-60 one-dose screen, 48 h (100 = growth as untreated, 0 = no growth, -100 = all killed)
# CONDITION CONTEXT: 10 µM unless noted
Compounds without any hit were thinned out: in the full panel of roughly 83,000, 20% have a hit.
// condition not met strictly below 40% in growth; condition met otherwise

Answered cases to consult:
Cc1cccc(N=Nc2cccc(C)c2)c1 : condition met
C=CC(=O)Nc1cccc(Oc2nccc(Nc3nnc(-c4ccc(Br)cc4)s3)n2)c1 : condition met
S=c1ccnc[nH]1 : condition met
O=C(/C=C/C12c3ccccc3C(c3ccccc31)C1C(=O)NC(=O)C12)c1ccc(Cl)cc1Cl (stereo unspecified) : condition met
Cc1nc2sc(C(=O)Nc3cccc(Cl)c3C)c(N)c2cc1C(=O)/C=C/c1ccccc1 : condition not met

Test whether the molecule O=C(NNc1nc2cc(F)ccc2n2c(CN3CCOCC3)ccc12)c1ccccc1 records growth of 40% or higher.
condition not met

###

# Tested on: SW-620 colon
# ASSAY PROCEDURE: NCI-60 one-dose screen, 48 h
# CONDITION CONTEXT: 10 µM unless noted
# Protocol: Growth inhibition of the SW-620 human tumor cell line is measured as a screen for anti-cancer activity. Cells are grown in 96 well plates and exposed to the test compound for 48 hours. Compounds are tested at a single concentration, which is 10^-5 M for most compounds. The reported endpoint is percent growth (GI% or GIPRCNT), where numbers from 0 - 100% represent growth inhibition, and numbers from -100% - 0 represent cell death. For example, a value of 40 represents 60% growth inhibition. […]
This is part of a sample that, as a whole, favours compounds with a hit. Of some 83,000 tested, about 20% had one in any assay. The source made the active and inactive calls. How the source made its calls: active means growth percent below 10; inactive means the rest.
Form entry, call: pick from label 1 (active), label 0 (inactive)

CC1=C2[C@@H](CC1)[C@]1(C)O[C@@](C3CCNCC3)(C[C@H]1OC(=O)CO)[C@H]2OC(=O)/C=C/c1ccccc1 : label 0
O=C(O)c1cn(C2CC2)c2cc(N3CCN(C(=O)N/N=C/c4cccc5ccccc45)CC3)c(F)cc2c1=O : label 0
Cc1c2ncccc2nc2[nH]c3ccc(OCCN(C)C)cc3c12 : label 0
COC12C=C/C(=C(/C(=O)OCCSc3ccnn3C)C(=O)CCCCCCCCC3(OC)C=C/C(=C(/C(=O)OCCSc4ccnn4C)C(=O)CCCCCCCC1)O3)O2 : label 0
N#Cc1c(-c2ccccc2)nc2c(c(-c3ccc(Cl)cc3)nn2-c2ccccc2)c1-c1ccc([N+](=O)[O-])cc1 : label 0

Please indicate how the test categorized COc1ccc(-c2cc(-c3cccnc3)nc3sc4c(N)c(C(C)=O)c(-c5ccccc5)nc4c23)cc1OC .
label 0

Please indicate how the test categorized CSc1ccc(N2C(=N)C(=S)N(c3ccc(C)cc3)C2=O)cc1 .
label 0

Please indicate how the test categorized O=S(=O)(Nc1ccc2ccccc2c1)c1ccc(-c2cnc(C3CC3)o2)cc1 .
label 0

Please indicate how the test categorized Cc1c2cnccc2c(C)c2c1c1cc(CO)ccc1n2C .
label 1

Please indicate how the test categorized Clc1ccc2nn3c4ccccc4c(OCCN4CCOCC4)nc3c2c1 .
label 0

Please indicate how the test categorized CN1CCN(c2ccc(NC3=CC(=O)c4ncncc4C3=O)cc2)CC1 .
label 1

Please indicate how the test categorized CN1C(=O)/C(=C/c2ccc(C(=O)Nc3ncc(Cc4cc(Cl)ccc4Cl)s3)cc2)SC1=S .
label 0
